Specific Binding Factors Mean ± SD (n = 3) for assorted compounds
- System: α-glucosidase (Saccharomyces cerevisiae)
- Construct: purchased Sigma-Aldrich (Shanghai, China) G5003-100UN
- Sequence (P53341 whole entry): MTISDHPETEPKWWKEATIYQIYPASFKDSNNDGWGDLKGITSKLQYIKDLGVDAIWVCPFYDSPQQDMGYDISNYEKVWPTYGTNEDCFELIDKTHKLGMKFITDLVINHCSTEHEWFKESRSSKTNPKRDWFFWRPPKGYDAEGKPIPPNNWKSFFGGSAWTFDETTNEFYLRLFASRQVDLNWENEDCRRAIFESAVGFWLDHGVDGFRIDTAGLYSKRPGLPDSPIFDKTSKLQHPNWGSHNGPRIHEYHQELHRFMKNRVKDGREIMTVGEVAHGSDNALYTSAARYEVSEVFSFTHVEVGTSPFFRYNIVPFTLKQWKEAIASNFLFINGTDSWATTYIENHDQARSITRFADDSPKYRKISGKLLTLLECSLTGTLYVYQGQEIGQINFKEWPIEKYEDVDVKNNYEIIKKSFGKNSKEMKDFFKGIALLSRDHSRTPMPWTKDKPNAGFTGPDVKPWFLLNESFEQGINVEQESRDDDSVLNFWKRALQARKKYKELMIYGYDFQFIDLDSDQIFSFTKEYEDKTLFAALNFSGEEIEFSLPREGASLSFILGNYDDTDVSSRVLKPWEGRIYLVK
- Assay overview: Affinity ultrafiltration coupled with HPLC (UF-HPLC), specific binding factor
- Measurement parameters: peaks of SGR2 (10 mg/mL) incubated with α-glucosidase; active vs denatured enzyme
- Protocol: Affinity UF was performed as previously described, with slight modifications. Briefly, a PBS solution of SGR2 (10 mg/mL, 800 μL) was mixed with α-glucosidase (1 U/mL, 400 μL) and incubated at 37 °C for 45 min. Next, the mixture was centrifuged at 10,000 rpm for 10 min using a UF membrane with a 10 kDa molecular weight cutoff, to collect the active component and α-glucosidase complexes. The complexes were washed 3 times with 600 μL of PBS (0.1 M, pH 7.2) to remove unbound compounds. […]
Observed property: Specific Binding Factors Mean ± SD (n = 3) (%)

Compound	Recorded number
CC1=C2CCC3C(C)(C(=O)CC4(C)C(C(C)CC/C=C(\C)C(=O)OC5OC(CO)C(O)C(O)C5O)C(OC5OC(CO)C(O)C(O)C5O)CC34C)C2CCC1=O (centres unmarked) [Compound 6, Siraitic acid IIb E]	3.91
CC1=C2CCC3C(C)(C(=O)CC4(C)C(C(C)CC/C=C(\C)C(=O)OC5OC(COC6OC(CO)C(O)C(O)C6O)C(O)C(O)C5O)C(OC5OC(CO)C(O)C(O)C5O)CC34C)C2CCC1=O (centres unmarked) [Compound 4, Siraitic acid III E]	2.93
CC(=O)OC(C)(C)CCC(=O)[C@](C)(O)C1C(O)C[C@@]2(C)[C@@H]3CC=C4[C@@H](CC(=O)[C@@H](O)C4(C)C)[C@]3(C)C(=O)C[C@]12C (some centres unmarked) [Compound 17, Dihydroisocucurbitacin B-25-acetate]	2.28
CC(=O)OC(C)(C)CCC(=O)[C@](C)(O)C1[C@H](O)C[C@@]2(C)[C@@H]3CC=C4[C@@H](CC(O)[C@@H](O)C4(C)C)[C@]3(C)C(=O)C[C@]12C (some centres unmarked) [Compound 13, 23,24-dihydrocucurbitacin F-25-acetate]	1.31
COc1cc(C[C@@H]2CO[C@@H](c3ccc(O)c(OC)c3)[C@@H]2CO)ccc1O [Compound 1, (-)-lariciresinol]	4.97

The reported measurements were obtained from paper PMC10299727.
